# assay.explanation: Solubility assessment in solvents (visual)
# Assay type: physicochemical
# cond: diethyl ether, 25 °C, organic solvent or mixture, thermodynamic from solid, Diethyl ether, 5 vol, 25° C.; read-out: Observations from solubility assessment
parameter: solubility

Value of measured solubility for the entry O=C1C[C@H](c2cc(F)c(F)c(F)c2)CN1Cn1ncnc1Cl : < 200 mg/mL

----------
# assay.explanation: Solubility assessment in solvents (visual)
# Assay type: physicochemical
# cond: nitromethane, 25 °C, organic solvent or mixture, thermodynamic from solid, Nitromethane, 5 vol, 25° C.; read-out: Observations from solubility assessment
parameter: solubility

The recorded solubility for entry O=C1C[C@H](c2cc(F)c(F)c(F)c2)CN1Cn1ncnc1Cl equals > 200 mg/mL
